test: Antioxidant activity assessed as ABTS radical scavenging activity at 2 mM; type: functional
experimental-readout: inhibition
The answer should read as a number with its unit following.

Answered cases to consult:
| compound | inhibition |
| --- | --- |
| O=c1[nH]c(=S)[nH]c2nc3c(c(-c4ccc(Cl)cc4)c12)CCC/C3=C\c1ccc(Cl)cc1 | 44.4% |
| O=c1[nH]c(=S)[nH]c2c1C(c1ccccc1)C1=C(N2)/C(=C/c2ccccc2)CCC1 (centres undefined) | 81.5% |
| CSc1nc2nc3c(c(-c4ccc(Cl)cc4)c2c(=O)n1C)CCC/C3=C/c1ccc(Cl)cc1 | 31.5% |

Form: compound = CN(C)c1ccc(/C=c2\sc3nc4nc5c(c(-c6ccc(Cl)cc6)c4c(=O)n3c2=O)CCC/C5=C/c2ccc(Cl)cc2)cc1 ; inhibition = 37%

Form: compound = C/C(=N/NC(N)=S)c1sc2nc3nc4c(c(-c5ccc(Cl)cc5)c3c(=O)n2c1C)CCC/C4=C/c1ccc(Cl)cc1 ; inhibition = 63%

Form: compound = O=c1c2c(-c3ccc(Cl)cc3)c3c(nc2nc2sc4c(n12)ONC4c1ccccc1)/C(=C\c1ccc(Cl)cc1)CCC3 (centres undefined) ; inhibition = 33.3%

Form: compound = CC(=O)c1sc2nc3nc4c(c(-c5ccc(Cl)cc5)c3c(=O)n2c1C)CCC/C4=C/c1ccc(Cl)cc1 ; inhibition = 40.7%

Form: compound = COc1ccc(/C=C/C(=O)c2sc3nc4nc5c(c(-c6ccc(Cl)cc6)c4c(=O)n3c2C)CCC/C5=C/c2ccc(Cl)cc2)cc1 ; inhibition = 22.2%

Form: compound = COc1ccc(/C=C2\CCCC3=C2Nc2[nH]c(=S)[nH]c(=O)c2C3c2ccc(OC)cc2)cc1 (centres undefined) ; inhibition = 66.7%
